- TESTED ON: Mcl-1/Bim interaction (recombinant human Mcl-1 residues 171-327) (Homo sapiens (Human))
- Sequence (Q07820 171-327): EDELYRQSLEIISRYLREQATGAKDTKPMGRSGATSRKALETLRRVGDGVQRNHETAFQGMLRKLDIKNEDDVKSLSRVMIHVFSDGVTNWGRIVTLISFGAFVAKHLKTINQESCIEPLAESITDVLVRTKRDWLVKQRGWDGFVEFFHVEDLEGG
- ASSAY PROCEDURE: Cell Free Mcl-1:Bim Affinity Assay (Mcl-1 HTRF)
- CONDITION SUMMARY: TR-FRET, 0.1 nM Mcl-1(171-327), 0.05 nM biotin-Bim(51-76)
- Description: Cell Free Mcl-1:Bim Affinity Assay (Mcl-1 HTRF) The inhibition of the Mcl-1/Bim interaction was measured using a time-resolved fluorescence resonance energy transfer (TR-FRET) assay. […] The reaction plates were further incubated overnight and then were read on an Envision® multimode reader (PerkinElmer). Fluorescence signals were measured at 620 nm (40-nm bandwidth) and 665 nm (7.5-nm bandwidth) with a 60 μs delay after excitation at 320 nm (75-nm bandwidth). […]
METRIC: pIC50
Keep it numeric: pIC50 is minus log10 of the concentration in mol/L.

Would you please look over these solved cases?
{"columns": ["MOLECULE", "pIC50"],
 "data": [
  ["C[C@@H]1[C@@H](C)CCC[C@H](CN2CCN3CCOC[C@@H]3C2)[C@@H]2CC[C@H]2CN2C[C@@]3(CCCc4cc(Cl)ccc43)COc3ccc(cc32)C(=O)NS1(=O)=O (stereo in doubt) [Example 32]", 9.31],
  ["COCCN1CCN(C[C@H]2CCC[C@H](C)[C@@H](C)S(=O)(=O)NC(=O)c3ccc4c(c3)N(C[C@@H]3CC[C@@H]23)C[C@@]2(CCCc3cc(Cl)ccc32)CO4)CC1=O (single isomer, unassigned) [Example 7]", 9.74],
  ["CC(=O)N1CCN2CCN(C[C@H]3CCC[C@H](C)[C@@H](C)S(=O)(=O)NC(=O)c4ccc5c(c4)N(C[C@@H]4CC[C@@H]34)C[C@@]3(CCCc4cc(Cl)ccc43)CO5)C[C@H]2C1 (single isomer, unassigned) [Example 15]", 9.73],
  ["C[C@@H]1[C@@H](C)CCC[C@H]([C@@H](C)O)[C@@H]2CC[C@H]2CN2C[C@@]3(CCCc4cc(Cl)ccc43)COc3ccc(cc32)C(=O)NS1(=O)=O (single isomer, unassigned) [Example 74]", 8.44]
]}

Next item in the queue.
Entry under review: C[C@@H]1[C@@H](C)C/C=C/[C@H](CN2CCOCC2)[C@@H]2CC[C@H]2CN2C[C@@]3(CCCc4cc(Cl)ccc43)COc3ccc(cc32)C(=O)NS1(=O)=O (stereo in doubt) . Reported pIC50? 9.41

Data origin, for the record: patent US11279712B2
